Reported Test B Human Plasma Protein Binding (% free) values for the following compounds.
experiment: Human Plasma Protein Binding (Test B); assay type: in vitro ADME; settings: fraction unbound (fu)

Example entries begin here.
[
  {
    "Compound": "COc1cc(F)c(-c2ccc(C(N)=O)cc2)cc1C(=O)N[C@H]1[C@@H](C(=O)Nc2cccc(S(=O)(=O)C(F)(F)F)c2)[C@@H]2C=C[C@H]1C2",
    "Result": "<0.26 % free"
  },
  {
    "Compound": "COc1cc(F)c(-c2cccc(C(=O)O)c2)cc1C(=O)N[C@H]1[C@@H](C(=O)Nc2cccc(S(=O)(=O)C(F)(F)F)c2)[C@@H]2C=C[C@H]1C2 (single isomer, unassigned) [Example 554]",
    "Result": "<0.30 % free"
  },
  {
    "Compound": "COc1cc(F)c(-c2ccc(CCC(N)(CO)CO)c(F)c2)cc1C(=O)N[C@@H]1[C@H]2CC[C@H](C2)[C@@H]1C(=O)Nc1cccc(S(=O)(=O)C(F)(F)F)c1",
    "Result": "<0.34 % free"
  }
]

Qu. Find the measured Test B Human Plasma Protein Binding (% free) of `COc1cc(F)c(O[C@H]2CC[C@@](C)(C(N)=O)CC2)cc1C(=O)N[C@@H]1[C@H]2CC[C@H](C2)[C@@H]1C(=O)NCC1(F)CCOCC1` and report it.
Ans. 36 % free
